// provenance: patent US12091425B2

pIC50: recorded values
- Assayed target: Mcl-1/Bim interaction, recombinant human Mcl-1 (171-327) (Homo sapiens, UniProt Q07820)
- Construct: made in house
- Sequence (Q07820 171-327): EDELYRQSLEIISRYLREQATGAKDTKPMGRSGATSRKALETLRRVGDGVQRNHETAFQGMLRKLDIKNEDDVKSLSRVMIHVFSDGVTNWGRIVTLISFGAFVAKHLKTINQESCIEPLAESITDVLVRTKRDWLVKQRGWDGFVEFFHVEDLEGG
- Assay details: Cell free Mcl-1: Bim Affinity Assay (Mcl-1 HTRF)
- Format: binding
- Experimental conditions: TR-FRET, 0.1 nM Mcl-1 (171-327), 0.05 nM biotin-Bim (51-76)
pIC50: −log10 of the molar value.

{"Molecule": "CO[C@H]1/C=C/C[C@H](CO)[C@@H](C)S(=O)(=O)NC(=O)c2ccc3c(c2)N(C[C@@H]2CC[C@H]21)C[C@@]1(CCCc2cc(Cl)ccc21)CO3 [Example 1]", "pIC50": 9.47}
{"Molecule": "CC(=O)N1C[C@@H]2C/C=C/[C@H](O)[C@@H]3CC[C@H]3CN3C[C@@]4(CCCc5cc(Cl)ccc54)COc4ccc(cc43)C(=O)NS(=O)(=O)[C@H]2C1 (single isomer, unassigned) [Example 339]", "pIC50": 8.57}
{"Molecule": "C[C@@]12C/C=C/[C@H](O)[C@@H]3CC[C@H]3CN3C[C@@]4(CCCc5cc(Cl)ccc54)COc4ccc(cc43)C(=O)NS(=O)(=O)[C@H]1CCC2 (single isomer, unassigned) [Example 131]", "pIC50": 8.74}
{"Molecule": "CO[C@H]1/C=C/C[C@H]2CC[C@@H]2S(=O)(=O)NC(=O)c2ccc3c(c2)N(C[C@@H]2CC[C@H]21)C[C@@]1(CCCc2cc(Cl)ccc21)CO3 [Example 95]", "pIC50": 9.34}
{"Molecule": "O=C1NS(=O)(=O)C/C=C/CNC(=O)[C@@H]2CC[C@H]2CN2C[C@@]3(CCCc4cc(Cl)ccc43)COc3ccc1cc32 (single isomer, unassigned) [Example 97]", "pIC50": 7.90}
{"Molecule": "O=C1NS(=O)(=O)[C@@H](CCS(=O)(=O)Cc2ccccc2)CC/C=C/[C@H](O)[C@@H]2CC[C@H]2CN2C[C@@]3(CCCc4cc(Cl)ccc43)COc3ccc1cc32 (single isomer, unassigned) [Example 163]", "pIC50": 8.29}
{"Molecule": "O=C1NS(=O)(=O)CC/C=C/[C@@H](O)[C@@H]2CC[C@H]2CN2C[C@@]3(CCCc4cc(Cl)ccc43)COc3ccc1cc32 [Example 221]", "pIC50": 7.96}
{"Molecule": "CC[C@@H]1CC/C=C/[C@H](OCC(=O)NCCO)[C@@H]2CC[C@H]2CN2C[C@@]3(CCCc4cc(Cl)ccc43)COc3ccc(cc32)C(=O)NS1(=O)=O [Example 996]", "pIC50": 9.31}
{"Molecule": "C[C@@H]1CC/C=C/[C@H](OCC(=O)N(C)C)[C@@H]2CC[C@H]2CN2C[C@@]3(CCCc4cc(Cl)ccc43)COc3ccc(cc32)C(=O)NS1(=O)=O [Example 420]", "pIC50": 9.46}
{"Molecule": "O=C1NS(=O)(=O)[C@H]2C[C@@H](CC[C@H](O)[C@@H]3CC[C@H]3CN3C[C@@]4(CCCc5cc(Cl)ccc54)COc4ccc1cc43)C2 [Example 101]", "pIC50": 8.59}

----------
Below: a set of entries, each annotated with reported pIC50.
- Assayed target: Mcl-1/Bim interaction, recombinant human Mcl-1 (171-327) (Homo sapiens, UniProt Q07820)
- Construct: made in house
- Assay details: Cell free Mcl-1: Bim Affinity Assay (Mcl-1 HTRF)
- Assay type: binding
- Experimental conditions: TR-FRET, 0.1 nM Mcl-1 (171-327), 0.05 nM biotin-Bim (51-76)
pIC50: −log10 of the molar value.

{"Compound": "COC[C@H]1C/C=C/[C@H](O)[C@@H]2CC[C@H]2CN2C[C@@]3(CCCc4cc(Cl)ccc43)COc3ccc(cc32)C(=O)NS(=O)(=O)C1", "Assayed target": "Mcl-1/Bim interaction, recombinant human Mcl-1 (171-327) (Homo sapiens, UniProt Q07820)", "pIC50": 9.31}
{"Compound": "COCCO[C@H]1/C=C/C[C@@H]2COC[C@H]2S(=O)(=O)NC(=O)c2ccc3c(c2)N(C[C@@H]2CC[C@H]21)C[C@@]1(CCCc2cc(Cl)ccc21)CO3 (single isomer, unassigned)", "Assayed target": "Mcl-1/Bim interaction, recombinant human Mcl-1 (171-327) (Homo sapiens, UniProt Q07820)", "pIC50": 9.44}
{"Compound": "O=C(O)CCN1CC/C=C/[C@H](O)[C@@H]2CC[C@H]2CN2C[C@@]3(CCCc4cc(Cl)ccc43)COc3ccc(cc32)C(=O)NS1(=O)=O", "Assayed target": "Mcl-1/Bim interaction, recombinant human Mcl-1 (171-327) (Homo sapiens, UniProt Q07820)", "pIC50": 9.77}
{"Compound": "C[C@H]1CCCS(=O)(=O)NC(=O)c2ccc3c(c2)N(C[C@@H]2CC[C@H]2[C@@H](O)C1)C[C@@]1(CCCc2cc(Cl)ccc21)CO3 (single isomer, unassigned) [Example 241]", "Assayed target": "Mcl-1/Bim interaction, recombinant human Mcl-1 (171-327) (Homo sapiens, UniProt Q07820)", "pIC50": 8.31}
{"Compound": "C[C@@H]1[C@@H](C)/C=C/[C@H](O)[C@@H]2CC[C@H]2CN2C[C@@]3(CCCc4cc(Cl)ccc43)COc3ccc(cc32)C(=O)NS(=O)(=O)[C@H]1C (single isomer, unassigned)", "Assayed target": "Mcl-1/Bim interaction, recombinant human Mcl-1 (171-327) (Homo sapiens, UniProt Q07820)", "pIC50": 8.22}
{"Compound": "CC[C@@H]1C[C@@H](C)/C=C/[C@H](O)[C@@H]2CC[C@H]2CN2C[C@@]3(CCCc4cc(Cl)ccc43)COc3ccc(cc32)C(=O)NS1(=O)=O (single isomer, unassigned)", "Assayed target": "Mcl-1/Bim interaction, recombinant human Mcl-1 (171-327) (Homo sapiens, UniProt Q07820)", "pIC50": 9.51}
{"Compound": "C[C@@H]1[C@@H](C)C/C=C/[C@H](OCc2ncccn2)[C@@H]2CC[C@H]2CN2C[C@@]3(CCCc4cc(Cl)ccc43)COc3ccc(cc32)C(=O)NS1(=O)=O", "Assayed target": "Mcl-1/Bim interaction, recombinant human Mcl-1 (171-327) (Homo sapiens, UniProt Q07820)", "pIC50": 9.65}
{"Compound": "C[C@@H]1[C@@H](C)C/C=C/[C@H](OCC(=O)O)[C@@H]2CC[C@H]2CN2C[C@@]3(CCCc4cc(Cl)ccc43)COc3cc(CC(=O)O)c(cc32)C(=O)NS1(=O)=O", "Assayed target": "Mcl-1/Bim interaction, recombinant human Mcl-1 (171-327) (Homo sapiens, UniProt Q07820)", "pIC50": 9.44}
{"Compound": "C[C@H]1C/C=C/[C@H](O)[C@@H]2CC[C@H]2CN2C[C@@]3(CCCc4cc(Cl)ccc43)COc3ccc(cc32)C(=O)NS(=O)(=O)N1CCN(C)C", "Assayed target": "Mcl-1/Bim interaction, recombinant human Mcl-1 (171-327) (Homo sapiens, UniProt Q07820)", "pIC50": 9.39}
{"Compound": "CS(=O)(=O)CCN1CC/C=C/[C@H](O)[C@@H]2CC[C@H]2CN2C[C@@]3(CCCc4cc(Cl)ccc43)COc3ccc(cc32)C(=O)NS1(=O)=O", "Assayed target": "Mcl-1/Bim interaction, recombinant human Mcl-1 (171-327) (Homo sapiens, UniProt Q07820)", "pIC50": 9.21}
{"Compound": "CC[C@@H]1CC/C=C\\[C@H](OCC(=O)NC)[C@@H]2CC[C@H]2CN2C[C@@]3(CCCc4cc(Cl)ccc43)COc3ccc(cc32)C(=O)NS1(=O)=O", "Assayed target": "Mcl-1/Bim interaction, recombinant human Mcl-1 (171-327) (Homo sapiens, UniProt Q07820)", "pIC50": 9.00}
{"Compound": "C[C@@H]1[C@@H](C)C/C=C/[C@H](OCC(=O)N2CCOCC2)[C@@H]2CC[C@H]2CN2C[C@@]3(CCCc4cc(Cl)ccc43)COc3ccc(cc32)C(=O)NS1(=O)=O", "Assayed target": "Mcl-1/Bim interaction, recombinant human Mcl-1 (171-327) (Homo sapiens, UniProt Q07820)", "pIC50": 9.73}

----------
- Assayed target: Mcl-1/Bim interaction, recombinant human Mcl-1 (171-327) (Homo sapiens)
- Construct: made in house
- Assay details: Cell free Mcl-1: Bim Affinity Assay (Mcl-1 HTRF)
- Format: binding
- Experimental conditions: TR-FRET, 0.1 nM Mcl-1 (171-327), 0.05 nM biotin-Bim (51-76)
pIC50: −log10 of the molar value.
Classify as follows. Reported pIC50 greater than or equal to 9: y. Reported pIC50 below: n.

{"Molecule": "COCCO[C@H]1/C=C/[C@H](C)C[C@@H](C)S(=O)(=O)NC(=O)c2ccc3c(c2)N(C[C@@H]2CC[C@H]21)C[C@@]1(CCCc2cc(Cl)ccc21)CO3", "Class name": "y"}
{"Molecule": "CO[C@@H]1CCCCCCS(=O)(=O)NC(=O)c2ccc3c(c2)N(C[C@@H]2CC[C@H]21)C[C@@]1(CCCc2cc(Cl)ccc21)CO3", "Class name": "n"}
{"Molecule": "COC[C@@H]1[C@@H](C)C/C=C/[C@H](O)[C@@H]2CC[C@H]2CN2C[C@@]3(CCCc4cc(Cl)ccc43)COc3ccc(cc32)C(=O)NS1(=O)=O (single isomer, unassigned)", "Class name": "y"}
{"Molecule": "CCN1[C@@H](C)C/C=C/[C@H](O)[C@@H]2CC[C@H]2CN2C[C@@]3(CCCc4cc(Cl)ccc43)COc3ccc(cc32)C(=O)NS1(=O)=O (single isomer, unassigned)", "Class name": "y"}
